- Test system: HepG2 human hepatocellular liver carcinoma cell line
- assay text: MTT cytotoxicity assay in HepG2 cells: IC50 of single agents and combinations with PM01183
- Assay type: cell-based
- test conditions: HepG2, 72 hours drug exposure, MTT; read-out: IC50
property label: IC50

// fetch IC50 for N.N.[Cl][Pt][Cl] [Cisplatin, cisplatin] ; system: HepG2 human hepatocellular liver carcinoma cell line
50 µM

----------
- System: MDA-MB-231 human breast adenocarcinoma cell line
- assay text: cells
property label: IC50 (µM)
Numbers only; they are read as µM.

Tell me IC50 reported for CO[C@@]12[C@H](COC(N)=O)C3=C(C(=O)C(C)=C(N)C3=O)N1C[C@@H]1N[C@@H]12
2

Tell me IC50 reported for O=C1[O][Pt]2([NH][C@@H]3CCCC[C@H]3[NH]2)[O]C1=O
108

----------
- Test system: HepG2 human hepatocellular liver carcinoma cell line
- assay text: MTT cytotoxicity assay in HepG2 cells: IC50 of single agents and combinations with PM01183
- Type: cell-based
- test conditions: Homo sapiens; HepG2, 72 hours drug exposure, MTT; read-out: IC50
Each record is given Met if its reported IC50 is strictly below 500 nM. Records at or above 500 nM are given Not met.

Please state whether IC50 is below 500 nM for CCC1=C[C@@H]2CN(C1)Cc1c([nH]c3ccccc13)[C@@](C(=O)OC)(c1cc3c(cc1OC)N(C)[C@H]1[C@@](O)(C(=O)OC)[C@H](OC(C)=O)[C@]4(CC)C=CCN5CC[C@]31[C@@H]54)C2 [Vinorelbine, vinorelbine]
Not met

Please state whether IC50 is below 500 nM for C#Cc1cccc(Nc2ncnc3cc(OCCOC)c(OCCOC)cc23)c1 [Erlotinib, erlotinib]
Not met

Please state whether IC50 is below 500 nM for COc1cccc2c1C(=O)c1c(O)c3c(c(O)c1C2=O)C[C@@](O)(C(C)=O)C[C@@H]3O[C@H]1C[C@H](N)[C@H](O)[C@H](C)O1 [Daunorubicin, daunorubicin]
Met

Please state whether IC50 is below 500 nM for Nc1ccn([C@@H]2O[C@H](CO)[C@@H](O)C2(F)F)c(=O)n1 [Gemcitabine, gemcitabine]
Met

Please state whether IC50 is below 500 nM for CC[C@]1(O)C[C@H]2CN(CCc3c([nH]c4ccccc34)[C@@](C(=O)OC)(c3cc4c(cc3OC)N(C=O)[C@H]3[C@@](O)(C(=O)OC)[C@H](OC(C)=O)[C@]5(CC)C=CCN6CC[C@]43[C@@H]65)C2)C1 [Vincristine, vincristine]
Met

Please state whether IC50 is below 500 nM for COc1c(C)cc2c(c1O)[C@@H]1[C@@H]3Cc4c(OC(C)=O)c(C)c5c(c4[C@H](CNC(=O)/C=C/c4cccc(C(F)(F)F)c4)N3[C@@H](O)[C@H](C2)N1C)OCO5 [PM00104]
Met

----------
- Test system: HT-29 human colon adenocarcinoma cell line
- assay text: cells
- test conditions: Homo sapiens, HT-29, 72 h
pIC50: −log10 of the molar value.
Output criterion met for pIC50 not less than 6; output criterion not met otherwise.

Identify whether the reported pIC50 of the following compound is 6 or greater: COc1cc([C@@H]2c3cc4c(cc3[C@@H](O[C@@H]3O[C@@H]5CO[C@@H](C)O[C@H]5[C@H](O)[C@H]3O)[C@H]3COC(=O)[C@H]23)OCO4)cc(OC)c1O [Etoposide, etoposide]
criterion not met

Identify whether the reported pIC50 of the following compound is 6 or greater: CCC1=C[C@@H]2CN(C1)Cc1c([nH]c3ccccc13)[C@@](C(=O)OC)(c1cc3c(cc1OC)N(C)[C@H]1[C@@](O)(C(=O)OC)[C@H](OC(C)=O)[C@]4(CC)C=CCN5CC[C@]31[C@@H]54)C2 [Vinorelbine, vinorelbine]
criterion met

Identify whether the reported pIC50 of the following compound is 6 or greater: CC[C@@]1(O)C(=O)OCc2c1cc1n(c2=O)Cc2cc3c(CN(C)C)c(O)ccc3nc2-1 [Topotecan, topotecan]
criterion met

Identify whether the reported pIC50 of the following compound is 6 or greater: COc1ccc2[nH]c3c(c2c1)CCN[C@]31CS[C@@H]2c3c(OC(C)=O)c(C)c4c(c3[C@H](COC1=O)N1[C@@H]2[C@H]2c3c(cc(C)c(OC)c3O)C[C@@H]([C@@H]1O)N2C)OCO4 [PM01183]
criterion met

Identify whether the reported pIC50 of the following compound is 6 or greater: CCc1c2c(nc3ccc(OC(=O)N4CCC(N5CCCCC5)CC4)cc13)-c1cc3c(c(=O)n1C2)COC(=O)[C@]3(O)CC [Irinotecan, irinotecan]
criterion not met
